Give half-life for every item shown.
Test: Pharmacokinetics in CD-1 mice, IV
Format: in vivo
Settings: male, mouse, iv, Plasma, intravenously 5 mg/kg, read-out: Terminal t1/2
Hi, when you answer, please include the unit after the number. Thanks!

Req: What half-life value was documented for this compound, Cn1cc(-c2cccnc2Oc2ccc(F)cc2)c2cc[nH]c2c1=O [Compound 18A] ?
Resp: 0.45 h

Req: What half-life value was documented for this compound, Cn1ccc2c(-c3cccnc3Oc3ccc(F)cc3)c[nH]c2c1=O [Compound 18B] ?
Resp: 2.33 h

---

Test: Pharmacokinetics in CD-1 mice, IV
Assay type: in vivo
Conditions: male, mouse, iv, Brain, intravenously 5 mg/kg
Give Cmax for every item shown.
Hi! Could you send only the number? It should be in ng/g, unit omitted.

Req: What Cmax value was documented for this molecule, Cn1cc(-c2cccnc2Oc2ccc(F)cc2)c2cc[nH]c2c1=O [Compound 18A] ?
Resp: 2970

Req: What Cmax value was documented for this molecule, Cn1ccc2c(-c3cccnc3Oc3ccc(F)cc3)c[nH]c2c1=O [Compound 18B] ?
Resp: 1690
